kon values by entry
- TARGET: T1, recombinant human Tie2 Ig3-FNIII(1-3) domains (human, UniProt Q02763 349-738)
- T1 construct: also called hTie2-Ig3-FNIII(1-3)
- T1 sequence (Q02763 349-738 limits assumed): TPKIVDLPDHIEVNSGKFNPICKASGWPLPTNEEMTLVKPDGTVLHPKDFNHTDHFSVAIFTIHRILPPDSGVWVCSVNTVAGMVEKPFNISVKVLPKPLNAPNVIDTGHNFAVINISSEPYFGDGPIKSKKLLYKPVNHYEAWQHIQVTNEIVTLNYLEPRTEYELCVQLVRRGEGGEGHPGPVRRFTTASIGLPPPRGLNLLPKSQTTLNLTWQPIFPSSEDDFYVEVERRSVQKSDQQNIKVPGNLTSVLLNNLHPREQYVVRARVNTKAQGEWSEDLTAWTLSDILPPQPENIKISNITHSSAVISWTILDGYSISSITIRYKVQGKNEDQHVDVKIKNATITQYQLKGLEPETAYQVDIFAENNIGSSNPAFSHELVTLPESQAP
- ASSAY_INFO: BLI (Octet), antibody immobilised on AR2G sensor, recombinant hTie2 as analyte, 1:1 global fit
- Description: The affinity of humanized anti-Tie2 antibody against hTie2 was measured using Octet® system (ForteBio) where Black 96-well plates (96 well F-type black plates, Greiner) were used. […] After the hydration, humanized anti-Tie2 antibody was diluted in 10 mM sodium acetate, pH 6.0 buffer at a concentration of 10 μg/ml, fixed on AR2G biosensor, and blocked with 1M ethanolamine. […]
Entry rule: numbers only, all in M⁻¹ s⁻¹.

>  <BINDER>
humanized anti-Tie2 antibody 3H7H11G4 (antibody, V domains shown) VH: QVQLVQSGAEVKKPGASVKVSCKASGYTFTSYWMNWVRQAPGQGLEWMGMIHPSDSETRLNQKFMDRVTMTRDTSTSTVYMELSSLRSEDTAVYYCARGLYGNSWGQGTLVTVSS VL: DIQMTQSPSSLSASVGDRVTITCRASQDIGISLNWYQQKPGKAPKRLIYATSSLDSGVPSRFSGSGSGTEFTLTISSLQPEDFATYYCLQYASSPYTFGQGTKVEIK

>  <READING_UNIT>
M⁻¹ s⁻¹

>  <OBSERVED>
62600

$$$$
>  <BINDER>
humanized anti-Tie2 antibody 3H7H21G4 (antibody, V domains shown) VH: QVQLVQSGAEVKKPGASVKVSCKASGYTFTSYWMNWVRQRPGQGLEWIGMIHPSDSETRLNQKFMDRVTMTRDTSTSTVYMELSSLRSEDTAVYYCARGLYGNSWGQGTLVTVSS VL: DIQMTQSPSSLSASVGDRVTITCRASQDIGISLNWYQQKPGKAPKRLIYATSSLDSGVPSRFSGSGSGTEFTLTISSLQPEDFATYYCLQYASSPYTFGQGTKVEIK

>  <READING_UNIT>
M⁻¹ s⁻¹

>  <OBSERVED>
78500

$$$$

Moving on to the next binder.
Fill in the blank: the reported kon of humanized anti-Tie2 antibody 3H7H22G4 (antibody, V domains shown) VH: QVQLVQSGAEVKKPGASVKVSCKASGYTFTSYWMNWVRQRPGQGLEWIGMIHPSDSETRLNQKFMDRVTMTRDTSTSTVYMELSSLRSEDTAVYYCARGLYGNSWGQGTLVTVSS VL: DIQMTQSPSSLSASVGDRVTITCRASQDIGISLNWLQQEPGKAPKRLIYATSSLDSGVPKRFSGSGSGTEFTLTISSLQPEDFATYYCLQYASSPYTFGQGTKVEIK is ____. 16500
